Please respond with reported IC50 for every item in the list.
biological target: recombinant SARS-CoV-2 Main protease (Mpro) (Severe acute respiratory syndrome coronavirus 2 (2019-nCoV) (SARS-CoV-2)); test: Cov Mpro Biochemical IC50 Assay; conditions: recombinant SARS-CoV-2 Mpro, fluorogenic peptide substrate; read-out: MPro IC50
Numbers only, in nM.

Example entries begin here.
{"compound": "O=c1[nH]c2cc(-c3ccccc3)ccc2c(=O)n1-c1cncc2ccccc12 [Example 25]", "IC50 (nM)": 1410}
{"compound": "Cc1nn(C2COC2)c(C)c1-c1cccc(Cl)c1-c1ccc2c(=O)n(-c3cncc4ccccc34)c(=O)[nH]c2c1 [Example 321]", "IC50 (nM)": 8.28}
{"compound": "CN1CCOc2cc(-c3cccc(Cl)c3-c3ccc4c(=O)n(-c5cncc6ccccc56)c(=O)[nH]c4c3)ccc21 [Example 314]", "IC50 (nM)": 456}

Need IC50 for each of these compounds.
1. O=c1[nH]c2cc(-c3c(Cl)cccc3-c3ccnc(C4CC4)c3)ccc2c(=O)n1-c1cncc2ccccc12 [Example 318]
2. COc1ccc(Cl)c(-c2cc3[nH]c(=O)n(-c4cncc5ccccc45)c(=O)c3s2)c1 [Example 174]
3. Cc1cccc(-c2ccccc2)c1-c1ccc2c(=O)n(-c3cncc4ccccc34)c(=O)[nH]c2c1 [Example 97]

1. 8.65
2. 6.99
3. 397
